- Tested on: BXPC-3
- Test Protocol: Cytotoxicity against human BXPC3 cells after 48 hrs by SRB assay
- Assay type: functional
- Details: Homo sapiens, BXPC-3, 48 h
Property Label: GI50

Chemical String	Measurement Target	Property Label	Result
COc1ccc(/C=C\c2cc(OC)c(OC)c(OC)c2)c(N)c1N	BXPC-3	GI50	0.014 µM
COc1cc([N+](=O)[O-])c(/C=C/c2cc(OC)c(OC)c(OC)c2)cc1[N+](=O)[O-]	BXPC-3	GI50	> 10 µM
COc1cc(/C=C/c2cc([N+](=O)[O-])c(OC)c([N+](=O)[O-])c2)cc(OC)c1OC	BXPC-3	GI50	> 10 µM
COc1cc([N+](=O)[O-])c(/C=C\c2cc(OC)c(OC)c(OC)c2)cc1[N+](=O)[O-]	BXPC-3	GI50	3.6 µM
COc1ccc(/C=C\c2cc(OC)c(OC)c(OC)c2)cc1O	BXPC-3	GI50	0.39 µM
COc1cc(/C=C\c2cc([N+](=O)[O-])c(OC)c([N+](=O)[O-])c2)cc(OC)c1OC	BXPC-3	GI50	0.79 µM
COc1cc(N)c(/C=C\c2cc(OC)c(OC)c(OC)c2)cc1N	BXPC-3	GI50	1 µM
COc1ccc(/C=C\c2cc(OC)c(OC)c(OC)c2)c(O)c1O	BXPC-3	GI50	4.4 µM
COc1cc(/C=C\c2ccc(OC)c([N+](=O)[O-])c2[N+](=O)[O-])cc(OC)c1OC	BXPC-3	GI50	2.1 µM
